All figures here come from the NIST ThermoML archive (doi:10.1016/j.fluid.2008.03.011).

Each entry below carries its recorded activity coefficient.
protocol text: activity coefficient (dimensionless); of the first substance listed, at infinite dilution; xn = mol fraction of the nth substance listed
recorded conditions: 323.15 K; 101 kPa; Liquid; dilutor technique; x1 = 0
Give only the figure.

Study these solved cases before continuing.
Cc1ccccc1 [toluene] + CCCCCC[n+]1ccn(C)c1.O=S(=O)([N-]S(=O)(=O)C(F)(F)F)C(F)(F)F = 1.05
CCO [ethanol] + CCCCCCn1cc[n+](C)c1.O=S(=O)([O-])C(F)(F)F = 0.94
CC1CCCCC1 [methylcyclohexane] + CCCCCC[n+]1ccn(C)c1.O=S(=O)([N-]S(=O)(=O)C(F)(F)F)C(F)(F)F = 6.3
CCO [ethanol] + CCCC[N+]1(C)CCCC1.O=S(=O)([O-])C(F)(F)F = 0.92
O [water] + CCCC[N+]1(C)CCCC1.O=S(=O)([O-])C(F)(F)F = 0.56

# compound CC1CCCCC1 [methylcyclohexane] + CCCCCCn1cc[n+](C)c1.O=S(=O)([O-])C(F)(F)F ; its activity coefficient = 9.77

Recorded result, Cc1ccccc1 [toluene] + CCCCCCCC[N+]1(C)CCCC1.O=S(=O)([N-]S(=O)(=O)C(F)(F)F)C(F)(F)F , activity coefficient: 0.8

Lab note: measured activity coefficient of CC1CCCCC1 [methylcyclohexane] + CCCCCCCC[N+]1(C)CCCC1.O=S(=O)([N-]S(=O)(=O)C(F)(F)F)C(F)(F)F was 4.29

For record CCO [ethanol] + CCOS(=O)(=O)[O-].CCn1cc[n+](C)c1 the listed activity coefficient is 0.57

* * *

protocol text: activity coefficient (dimensionless); of the first substance listed, at infinite dilution; xn = mol fraction of the nth substance listed
recorded conditions: 303.15 K; 101 kPa; Liquid; dilutor technique; x1 = 0
quantity measured: activity coefficient
Give the value as a plain number.

CCO [ethanol] + CCCCCCn1cc[n+](C)c1.O=S(=O)([O-])C(F)(F)F = 1.05
CC1CCCCC1 [methylcyclohexane] + CCCCCCn1cc[n+](C)c1.O=S(=O)([O-])C(F)(F)F = 10.5

Given item Cc1ccccc1 [toluene] + CCCCCC[n+]1ccn(C)c1.O=S(=O)([N-]S(=O)(=O)C(F)(F)F)C(F)(F)F , the value recorded as its activity coefficient is 0.85

For this compound ( Cc1ccccc1 [toluene] + CCCCCCCC[N+]1(C)CCCC1.O=S(=O)([N-]S(=O)(=O)C(F)(F)F)C(F)(F)F ), measured activity coefficient is 0.67

Lab note: CC1CCCCC1 [methylcyclohexane] + CCCCCC[n+]1ccn(C)c1.O=S(=O)([N-]S(=O)(=O)C(F)(F)F)C(F)(F)F gave activity coefficient of 6.83

Summary for this compound, CC1CCCCC1 [methylcyclohexane] + CCCCCCCC[N+]1(C)CCCC1.O=S(=O)([N-]S(=O)(=O)C(F)(F)F)C(F)(F)F : activity coefficient is 4.59

* * *

protocol text: activity coefficient (dimensionless); of the first substance listed, at infinite dilution; xn = mol fraction of the nth substance listed
recorded conditions: 313.15 K; 101 kPa; Liquid; dilutor technique; x1 = 0
quantity measured: activity coefficient
I only need the number, thanks.

The following compounds have reported results that may help.
Cc1ccccc1 [toluene] + CCCCCC[n+]1ccn(C)c1.O=S(=O)([N-]S(=O)(=O)C(F)(F)F)C(F)(F)F = 0.95
CC1CCCCC1 [methylcyclohexane] + CCCCCCCC[N+]1(C)CCCC1.O=S(=O)([N-]S(=O)(=O)C(F)(F)F)C(F)(F)F = 4.41
CC1CCCCC1 [methylcyclohexane] + CCCCCC[n+]1ccn(C)c1.O=S(=O)([N-]S(=O)(=O)C(F)(F)F)C(F)(F)F = 6.59

Memo: CCO [ethanol] + CCCC[N+]1(C)CCCC1.O=S(=O)([O-])C(F)(F)F , reported activity coefficient: 0.95

The value of activity coefficient measured for the compound CC1CCCCC1 [methylcyclohexane] + CCCCCCn1cc[n+](C)c1.O=S(=O)([O-])C(F)(F)F turned out to be 10.2

Notebook: CCO [ethanol] + CCCCCCn1cc[n+](C)c1.O=S(=O)([O-])C(F)(F)F , activity coefficient read as 1

For record O [water] + CCCC[N+]1(C)CCCC1.O=S(=O)([O-])C(F)(F)F the listed activity coefficient is 0.67

Recorded activity coefficient (compound Cc1ccccc1 [toluene] + CCCCCCCC[N+]1(C)CCCC1.O=S(=O)([N-]S(=O)(=O)C(F)(F)F)C(F)(F)F ): 0.73
